Assay: modulators of CIT2-GFP expression in yeast, confirmation, S. cerevisiae, GFP fusion, cherry picks, mother/daughter gates (AID 2274)
Details: S. cerevisiae CIT2-GFP strain, flow cytometry, 3 h; measured here: mother cell gate; at 10 µM; stronger effect = higher value
value-kind: GFP response, % of DMSO (%)
The figure you give is taken to be in %; do not add the unit.

q: Tell me the measured GFP response, % of DMSO of Cc1nnc(NC(=O)c2nc(S(=O)(=O)Cc3ccccc3C)ncc2Cl)s1 , please.
a: 96

q: Tell me the measured GFP response, % of DMSO of O=S(=O)(c1ccccc1)N1N=C(c2cccs2)CC1c1ccc(Br)cc1 (configuration not stated) , please.
a: 97.3

q: Tell me the measured GFP response, % of DMSO of Nc1ccc2nc(-c3ccc(-c4nc5ccc(N)cc5[nH]4)cc3)[nH]c2c1 , please.
a: 93.8

q: Tell me the measured GFP response, % of DMSO of CCOc1ccc(S(=O)(=O)N2CCc3ccccc3C2)cc1 , please.
a: 91

q: Tell me the measured GFP response, % of DMSO of COc1cccc(C(=O)C(C#N)=C(SC)SC)c1 , please.
a: 79.4

q: Tell me the measured GFP response, % of DMSO of CCOC(=O)C1(CCCc2ccccc2)CCN(C(=O)c2cc(C)nn2CC)CC1 , please.
a: 101

q: Tell me the measured GFP response, % of DMSO of O=C1C=CC(=O)N1c1ccc(Sc2ccc([N+](=O)[O-])cc2)cc1 , please.
a: 63.8

q: Tell me the measured GFP response, % of DMSO of O=C(NCCO)c1c(O)c2cccc3c2n(c1=O)CC3 , please.
a: 96.6

q: Tell me the measured GFP response, % of DMSO of O=C1CC(Sc2nnnn2C2CCCCC2)C(=O)N1c1ccccc1 (configuration not stated) , please.
a: 93.3

q: Tell me the measured GFP response, % of DMSO of COc1cc(/C=C/C(=O)c2c(O)cc(C)oc2=O)cc(OC)c1O , please.
a: 94.4

q: Tell me the measured GFP response, % of DMSO of Cc1cccc(N2C(=O)CC(Sc3nc(C)c4c(n3)CCCC4)C2=O)c1 (configuration not stated) , please.
a: 99.7

q: Tell me the measured GFP response, % of DMSO of Cc1ccc(S(=O)(=O)N2CCCC2C(=O)OCc2ccco2)cc1 (configuration not stated) , please.
a: 112

q: Tell me the measured GFP response, % of DMSO of CN(CCCS(=O)(=O)[O-])c1ccc(/C=C/c2ccc3ccccc3[n+]2C)cc1 , please.
a: 106

q: Tell me the measured GFP response, % of DMSO of CCCN(CCC)S(=O)(=O)c1ccc(C(=O)Nc2nnc(-c3cc(OC)cc(OC)c3)o2)cc1 , please.
a: 101

q: Tell me the measured GFP response, % of DMSO of COc1ccc(C(=O)/C=C2/C(=O)Nc3ccccc32)c(OC)c1 , please.
a: 77.3

q: Tell me the measured GFP response, % of DMSO of Cn1cnnc1SCC(=O)Nc1nc(-c2ccc(F)cc2)cs1 , please.
a: 102

q: Tell me the measured GFP response, % of DMSO of O=C(O)CSC1CC(=O)N(c2ccc(Cl)c(Cl)c2)C1=O (configuration not stated) , please.
a: 100

q: Tell me the measured GFP response, % of DMSO of O=[N+]([O-])c1ccc(Sc2nc3ccccc3o2)c([N+](=O)[O-])c1 , please.
a: 100

q: Tell me the measured GFP response, % of DMSO of O=C(CNC(=O)c1ccncc1)N/N=C/c1cccc([N+](=O)[O-])c1 , please.
a: 99.7

q: Tell me the measured GFP response, % of DMSO of CCn1c(=O)c(C(=O)NCc2ccc(OC)cc2)c(O)c2ccccc21 , please.
a: 100

q: Tell me the measured GFP response, % of DMSO of COc1ccccc1C(=O)NNC(=S)NC(=O)c1cccs1 , please.
a: 108

q: Tell me the measured GFP response, % of DMSO of O=C(c1cc([N+](=O)[O-])cc([N+](=O)[O-])c1)N(Cc1nnc(-c2ccccc2Cl)o1)C1CC1 , please.
a: 109
